Property: Body weight; scope: individual sequences
assay.comment: Tolerability in Sprague-Dawley rats: body and organ weights (Example 23)
Format: in vivo
cond: 50 mg/kg s.c. twice per week for 6 weeks, increase over PBS control weight before start of treatment
reported.endpoint: Body weight (g)

>>> reported_measurement("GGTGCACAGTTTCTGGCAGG (all C 5-methyl, all phosphorothioate, sugars by position not given here; MOE gapmer) [ISIS 413481, 5-10-5 MOE gapmer]")
147
>>> reported_measurement("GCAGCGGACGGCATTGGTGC (antisense; all C 5-methyl, all phosphorothioate, sugars by position not given here; MOE gapmer, 5-10-5) [ISIS 412225, 5-10-5 MOE gapmer]")
184
>>> reported_measurement("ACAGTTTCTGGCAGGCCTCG (antisense; all C 5-methyl, all phosphorothioate, sugars by position not given here; MOE gapmer, 5-10-5) [ISIS 412223, 5-10-5 MOE gapmer]")
126
>>> reported_measurement("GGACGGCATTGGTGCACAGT (antisense; all C 5-methyl, all phosphorothioate, sugars by position not given here; MOE gapmer, 5-10-5) [ISIS 413482, 5-10-5 MOE gapmer]")
158
>>> reported_measurement("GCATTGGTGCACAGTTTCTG (antisense; all C 5-methyl, all phosphorothioate, sugars by position not given here; MOE gapmer, 5-10-5) [ISIS 412224, 5-10-5 MOE gapmer]")
165

###

# Lookup of reported percent inhibition of human Factor XI mRNA keyed by entry
Tested on: human Factor XI mRNA
assay.comment: Dose-dependent inhibition in HepG2 cells, electroporation (Example 5)
Format: cell-based
cond: 1250 nM, approx. 16 h, relative to untreated control cells
reported.endpoint: percent inhibition of human Factor XI mRNA (%)

>>> reported_measurement("416858 (antisense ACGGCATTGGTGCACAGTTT; 5-10-5 gapmer, wing sugar chemistry not given here, further chemistry not given here) [compound 416858]")
77
>>> reported_measurement("417002 (antisense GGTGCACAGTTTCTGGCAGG; 2-13-5 gapmer, wing sugar chemistry not given here, further chemistry not given here) [compound 417002]")
72
>>> reported_measurement("416825 (antisense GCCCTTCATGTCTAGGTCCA; 5-10-5 gapmer, wing sugar chemistry not given here, further chemistry not given here) [compound 416825]")
84
>>> reported_measurement("416892 (antisense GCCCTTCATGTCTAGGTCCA; 3-14-3 chimeric gapmer, wing sugar chemistry not given here, further chemistry not given here) [compound 416892]")
86
>>> reported_measurement("416826 (antisense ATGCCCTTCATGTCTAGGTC; 5-10-5 gapmer, wing sugar chemistry not given here, further chemistry not given here) [compound 416826]")
82
>>> reported_measurement("416838 (antisense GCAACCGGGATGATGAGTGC; 5-10-5 gapmer, wing sugar chemistry not given here, further chemistry not given here) [compound 416838]")
79
>>> reported_measurement("416999 (antisense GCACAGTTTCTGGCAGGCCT; 2-13-5 gapmer, wing sugar chemistry not given here, further chemistry not given here) [compound 416999]")
82
>>> reported_measurement("416850 (antisense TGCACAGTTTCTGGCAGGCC; 5-10-5 gapmer, wing sugar chemistry not given here, further chemistry not given here) [compound 416850]")
80
>>> reported_measurement("416864 (antisense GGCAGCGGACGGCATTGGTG; 5-10-5 gapmer, wing sugar chemistry not given here, further chemistry not given here) [compound 416864]")
74
>>> reported_measurement("417003 (antisense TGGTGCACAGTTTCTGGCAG; 2-13-5 gapmer, wing sugar chemistry not given here, further chemistry not given here) [compound 417003]")
74
>>> reported_measurement("416925 (antisense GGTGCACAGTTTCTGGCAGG; 3-14-3 chimeric gapmer, wing sugar chemistry not given here, further chemistry not given here) [compound 416925]")
80

Provenance of the data: patent US20120083522A1
